- System: HepG2-CANX-COX4
- ASSAY_METHOD_TEXT: phenotypically active (imaging signature differs from DMSO and reproducible) at any of 0.3-9 uM (binary (1 = active, 0 = inactive)); higher = active
- CONDITION_DESCRIPTION: treatment time: 24 h
Where a name gives a salt, the structure may show the parent alone.
MEASURED_METRIC: phenotypically active

INSERT INTO results (compound, observed) VALUES
  ('NC(=S)N/N=C/c1coc2ccccc2c1=O', 0),
  ('CN1CCC2=C[C@H](O)[C@H]3OC(=O)c4cc5c(cc4[C@H]3[C@@H]21)OCO5 [Hippeastrine hydrobromide]', 1),
  ('CCC1(CC)C(=O)NC(=O)N(C)C1=O [metharbital]', 0),
  ('CCOC(=O)C1(c2ccccc2)CCN(C)CC1 [meperidine]', 0),
  ('Cc1sc2c(c1C)C(c1ccc(Cl)cc1)=N[C@@H](CC(=O)OC(C)(C)C)c1nnc(C)n1-2', 1),
  ('CCN(CC)CCN1C(=O)CN=C(c2ccccc2F)c2cc(Cl)ccc21 [flurazepam]', 1),
  ('CCN(C)C(=O)Oc1cccc([C@H](C)N(C)C)c1 [rivastigmine]', 0),
  ('CC[C@@H](C(=O)[C@@H](C)[C@@H](O)[C@H](C)[C@@H]1O[C@@H]([C@@H](CC)C(=O)O)CC[C@@H]1C)[C@H]1O[C@]2(C=C[C@@H](O)[C@]3(CC[C@@](C)([C@H]4CC[C@](O)(CC)[C@H](C)O4)O3)O2)[C@H](C)C[C@@H]1C [Salinomycin Sodium]', 1),
  ('C[C@@]12C(=O)OC(=O)[C@]1(C)[C@H]1CC[C@@H]2O1 [Cantharidin]', 1),
  ('CC[C@H]1CN2CCC1C[C@H]2[C@H](O)c1ccnc2ccc(OC)cc12 (some centres not stated) [Hydroquinine hydrobromide hydrate]', 0),
  ('Cc1ccc(-c2nc3ccc(C)cn3c2CC(=O)N(C)C)cc1 [zolpidem]', 0),
  ('CCN1C[C@]2(COC)CC[C@H](O)[C@]34[C@@H]5C[C@H]6[C@H](OC)[C@@H]5[C@](O)(C[C@@H]6OC)[C@](O)([C@H]13)[C@@H](OC)[C@H]24 [Delsoline]', 0),
  ('CCN1C[C@]2(COC)CC[C@H](OC)[C@]34[C@@H]5C[C@H]6[C@H](OC)[C@@H]5[C@@]5(C[C@@H]6OC)OCO[C@@]5([C@H]13)[C@@H](O)[C@H]24 [Delcorine]', 0),
  ('COc1ccc2c3c1O[C@H]1C(=O)CC[C@H]4[C@@H](C2)N(C)CC[C@]314 [hydrocodone]', 0),
  ('C[C@]12C/C(=C\O)C(=O)C[C@@H]1CC[C@@H]1[C@@H]2CC[C@@]2(C)[C@H]1CC[C@]2(C)O [oxymetholone]', 0),
  ('C[C@H](N)Cc1ccccc1 [dextroamphetamine]', 0),
  ('CC(=O)O[C@H]1C[C@@H]2CC[C@@H]3[C@H](CC[C@@]4(C)[C@H]3C[C@H]([N+]3(C)CCCCC3)[C@@H]4OC(C)=O)[C@@]2(C)C[C@@H]1[N+]1(C)CCCCC1 [pancuronium]', 0),
  ('CN1CCc2cc3c(cc2[C@H]1[C@@H]1OC(=O)c2c1ccc1c2OCO1)OCO3 [bicuculine]', 0),
  ('C[C@@H]1NCCc2cc(O)c(O)cc21 [Salsolinol hydrobromide]', 0),
  ('CC[N+](CC)(CCCNC1=CC(=O)C(NCCC[N+](CC)(CC)Cc2ccccc2)=CC1=O)Cc1ccccc1 [Benzoquinonium dibromide]', 0),
  ('CCCCCOc1ccc(C(=O)c2cccc3ccccc23)c2ccccc12', 0),
  ('CC[C@@H](CO)NC(=O)[C@@H]1C=C2c3cccc4c3c(cn4C)C[C@H]2N(C)C1 [methysergide]', 0),
  ('C[C@]12CC[C@H](O)C[C@H]1CC[C@@H]1[C@@H]2CC[C@]2(C)[C@@H](C3=CC(=O)OC3)CC[C@]12O [Digitoxigenin]', 1),
  ('Cc1c(C(=O)c2cccc3ccccc23)c2cccc3c2n1[C@H](CN1CCOCC1)CO3 [WIN 55,212-2 mesylate]', 0),
  ('O=c1[nH]c2ccccc2n1C1CCN(CCCC(c2ccc(F)cc2)c2ccc(F)cc2)CC1 [pimozide]', 0),
  ('C[C@@H](N)[C@@H](O)c1ccccc1 [phenylpropanolamine]', 0),
  ('N#CC(CCN1CCC(C(=O)O)(c2ccccc2)CC1)(c1ccccc1)c1ccccc1 [difenoxin]', 0),
  ('O=C1NC(=O)c2c1c1c3ccccc3n3c1c1c2c2ccccc2n1C1CCC3O1', 0),
  ('C[C@@H](CO)NC(=O)[C@@H]1C=C2c3cccc4[nH]cc(c34)C[C@H]2N(C)C1 [Ergobasine]', 0),
  ('C=C(C)[C@H]1CN[C@H](C(=O)O)[C@H]1CC(=O)O [Kainic acid]', 0),
  ('CCN(CC)C(C)C(=O)c1ccccc1 (configuration not stated) [amfepramone]', 0),
  ('CC[C@H]1CN2CC[C@H]1C[C@@H]2[C@@H](O)c1ccnc2ccc(OC)cc12 [Hydroquinidine HCl]', 1);
